- target_of_assay: Plasmodium falciparum protein kinase 6 (PK6, PF3D7_1337100)
- assay_text: PfPK6 kinase inhibitors, biochemical, TCAMS library (AID 1159586)
- condition_set: recombinant PfPK6, Kinase-Glo ATP depletion luminescence
Measured potencies and affinities stand elsewhere. Active and inactive are the calls of the source. The rule behind the calls is not given here.
observed_property: outcome

Look over these answered cases.
compound: CC1CN(Cc2cccc(-c3ccc(-c4nc5ccccc5[nH]4)cc3)c2)CC(C)O1 (centres undefined)
observed_property: outcome
val: inactive

compound: NCC1CCCN1Cc1ccc(-c2cccc(-c3nc4ccc(C(F)(F)F)cc4[nH]3)c2)cc1 (centres undefined)
observed_property: outcome
val: inactive

compound: Cc1ccc(CNC(=O)c2ccc(CN3CCCN(Cc4ccsc4)CC3)cc2)cc1
observed_property: outcome
val: inactive

compound: NC1CCCN(Cc2cccc(-c3ccc(-c4nc5ccc(F)cc5[nH]4)cc3)c2)C1 (centres undefined)
observed_property: outcome
val: inactive

compound: FC(F)(F)c1cc(CNCCCNc2nc3ccncc3[nH]2)ccc1Cl
observed_property: outcome
val: inactive

Report outcome for every entry below.
1. O=C(Nc1ccc2nccc(N3CCN4CCC[C@H]4C3)c2c1)c1ccc(Cl)c(Cl)c1
2. COc1cc(C2Nc3ccc4ccccc4c3C3=C2C(=O)CC(C)(C)C3)ccc1Oc1ccc([N+](=O)[O-])cc1C#N (centres undefined)
3. Cc1nc(N)nc(N)c1-c1ccc2ccccc2c1
4. CC1(C)N=C(N)N=C(N)N1OCCSc1ccc(Cl)c(Cl)c1

Data returned:
inactive
inactive
inactive
inactive

Report outcome for every entry below.
1. CC[C@H]1CN2CCc3c([nH]c4ccccc34)[C@@H]2C[C@@H]1CC1c2cc(OC)c(OC)cc2CCN1C (some centres undefined)
2. COCCN1CCC(NCC(C)(C)c2nc(-c3ccc(Cl)c(O)c3)c(-c3ccncc3)[nH]2)CC1
3. O=C(CNC(=O)c1ccc(O)cc1)Nc1cccc(-c2cccc(-c3nc4ccc(C(F)(F)F)cc4[nH]3)c2)c1
4. COC(=O)CCCCCOc1cc(Cc2cnc(N)nc2N)cc(OC)c1OC
5. O=S(=O)(NC1=NCCC1)c1cccc(Nc2nc(C(F)(F)F)nc3ccccc23)c1
6. COC(=O)[C@@H](NC(=O)[C@H](CC(C)C)Nc1ccc(C#N)c2ccccc12)c1ccc(O)cc1
7. Cc1ccc(Cn2ncc(N3CCNCC3)c(Cl)c2=O)cc1NC(=O)Nc1ccc(-c2ccccc2)cc1

Data returned:
1: inactive; 2: inactive; 3: inactive; 4: inactive; 5: inactive; 6: inactive; 7: inactive

Report outcome for every entry below.
1. Cc1ccc(CNC(=O)[C@H](CCCN)Nc2cc(C)nc(NCC3CCCCC3)n2)cc1
2. O=C(NCCN1CCCC1)c1cccc(-c2ccc(-c3nc4ccccc4[nH]3)s2)c1
3. CCC[C@@H]([C@@H](CC1CCC(C)CC1)C(=O)N[C@@H](CCCCNC(=O)c1ccccn1)C(=O)Nc1nccs1)N(O)C=O (some centres undefined)

Data returned:
["inactive", "inactive", "inactive"]

----------
- target_of_assay: Protein kinase 7 (PK7), Plasmodium falciparum 3D7 (PF3D7_0213400)
- assay_text: inhibition of Plasmodium PK7 catalytic activity – biochemical, TCAMS antimalarial set, Kinase-Glo luminescence (AID 1159587)
- condition_set: recombinant PfPK7, Kinase-Glo ATP depletion luminescence
The source made the active and inactive calls. How the calls were made is not given here.
observed_property: outcome

chemical_smiles: CCCCCCc1cnc2nc(N)nc(N)c2c1C
outcome: inactive
//
chemical_smiles: Cc1c(Cl)ccc2c(C(=O)Nc3ccncc3)cc(-c3cccnc3)nc12
outcome: inactive
//
chemical_smiles: Oc1ccc(CN2CCC(NCc3cccc4ccccc34)CC2)cc1
outcome: inactive
//
chemical_smiles: COc1ccc2nccc([C@@H](O)CN3CCC(NCc4cc5oc(=O)n(C)c5cc4F)CC3)c2c1
outcome: inactive
//
chemical_smiles: COc1cc(C=NNc2cc(C)nc3c(OC)cccc23)cc(OC)c1OC
outcome: inactive

Next compound, outcome to be filled in.
Data request: Form: Entry = `CC(C)c1ccc(CN2CCC(NC(=O)c3ccc(-c4cccc(Cl)c4)s3)CC2)cc1` | System = Protein kinase 7 (PK7), Plasmodium falciparum 3D7 (PF3D7_0213400) | outcome = ____
Data returned: inactive
